# System tested: Platelet glycoprotein IIb/IIIa (human), P08514
# Protocol description: ELISA
# Assay conditions: modification not given
Starred links: 1 amine or outer side, 2 acyl side, 3 side chain; linkers in the order of their positions; H or OH if unused. Positions of bridges follow the written chain, without caps; N, C: chain ends. Non-standard residues stand in square brackets, D forms with d. Primed or numbered codes have the meaning given here. No end group written: not given here. Pmc′ = pentamethylenecysteine (from Boc-D/L-Pmc), O=C(C(N[*:1])C1(S[*:3])CCCCC1)[*:2]; Cys(β,β-pentamethylene) = O=C([C@@H](N[*:1])C1(S[*:3])CCCCC1)[*:2]; 2Nal = N[C@@H](Cc1ccc2ccccc2c1)C(=O)O
# key: entry, value: IC50

Binder	Readout units	IC50
R[Cys(β,β-pentamethylene)]GHRGD[2Nal]RCR (disulfide 2-10) [R(Pmc)GHRGD(2-Nal)RCR]	nM	70
R[Pmc′]RHRGD[Y‑OMe]RCR (disulfide 2-10) [R(Pmc)RHRGD(Y-OMe)RCR]	nM	70

Origin of values: patent US6521594
